Biological target: T1, human GPVI (full-length) expressed on stably transfected rat basophilic RBL-2H3 cells (human, UniProt Q9HCN6 21-339)
T1 sequence (looked up): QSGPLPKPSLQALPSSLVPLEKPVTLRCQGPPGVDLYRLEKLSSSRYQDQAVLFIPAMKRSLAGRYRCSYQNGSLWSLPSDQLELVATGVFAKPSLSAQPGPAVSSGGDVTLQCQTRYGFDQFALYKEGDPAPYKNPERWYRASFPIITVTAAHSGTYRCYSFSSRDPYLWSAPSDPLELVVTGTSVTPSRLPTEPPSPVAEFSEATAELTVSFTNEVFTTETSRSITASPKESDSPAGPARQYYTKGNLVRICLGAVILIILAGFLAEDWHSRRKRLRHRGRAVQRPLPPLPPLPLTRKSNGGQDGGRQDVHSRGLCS
Assay: cell-based or functional assay
Exam item: assign yes to entries whose Cell adhesion assay IC50 [nM], coated VitroCol is below 0.9 nM and no to entries at or above 0.9 nM. Note that a value of exactly 0.9 nM receives no.

| Binder | Class |
| --- | --- |
| Fab #4 comprising a modified heavy chain constant region (Fab, V domains shown, Human Fab from the Ylanthia library; produced in HKB11 cells; also called Fab #4 mod; HC) VH: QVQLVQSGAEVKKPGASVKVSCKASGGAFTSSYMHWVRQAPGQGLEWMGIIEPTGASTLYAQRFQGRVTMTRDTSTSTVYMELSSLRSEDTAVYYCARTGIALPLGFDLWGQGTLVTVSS VL: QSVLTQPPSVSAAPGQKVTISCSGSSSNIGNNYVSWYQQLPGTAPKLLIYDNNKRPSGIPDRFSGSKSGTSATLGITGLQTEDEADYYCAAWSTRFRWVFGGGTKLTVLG | yes |
| Fab #3 comprising a modified heavy chain constant region (Fab, V domains shown, Human Fab from the Ylanthia library; produced in HKB11 cells; also called Fab #3 mod; HC) VH: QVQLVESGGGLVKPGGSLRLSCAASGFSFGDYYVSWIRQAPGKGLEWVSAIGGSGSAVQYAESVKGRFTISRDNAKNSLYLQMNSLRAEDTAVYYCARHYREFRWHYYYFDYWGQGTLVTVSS VL: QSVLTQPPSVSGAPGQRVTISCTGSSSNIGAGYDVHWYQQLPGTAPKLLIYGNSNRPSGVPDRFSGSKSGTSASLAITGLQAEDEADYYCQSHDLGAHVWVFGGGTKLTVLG | yes |
| Fab #1 comprising a modified heavy chain constant region (Fab, V domains shown, Human Fab from the Ylanthia library; produced in HKB11 cells; also called Fab #1 mod; HC) VH: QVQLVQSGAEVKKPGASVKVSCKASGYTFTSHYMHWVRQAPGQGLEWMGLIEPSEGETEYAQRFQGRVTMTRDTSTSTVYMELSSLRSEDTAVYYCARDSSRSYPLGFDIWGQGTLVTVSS VL: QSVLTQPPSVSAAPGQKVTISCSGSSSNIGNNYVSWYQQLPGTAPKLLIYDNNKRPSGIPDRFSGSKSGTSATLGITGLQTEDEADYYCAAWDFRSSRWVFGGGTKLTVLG | yes |
| Reference Control Antibody RefFab #1 (humanized GPVI antibody of WO2011073954A2, SANOFI) (Fab, V domains shown, Cloned into mammalian Fab expression vectors; a glycine-serine linker (G4S)2 was added to the C-terminus of the Fab heavy chain) VH: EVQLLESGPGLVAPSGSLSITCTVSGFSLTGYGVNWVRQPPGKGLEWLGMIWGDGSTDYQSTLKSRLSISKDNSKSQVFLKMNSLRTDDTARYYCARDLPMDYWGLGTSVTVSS VL: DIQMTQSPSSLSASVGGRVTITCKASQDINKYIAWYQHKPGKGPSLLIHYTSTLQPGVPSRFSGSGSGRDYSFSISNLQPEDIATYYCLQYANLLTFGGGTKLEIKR | no |
